Where do these numbers come from? They come from PubChem BioAssay AID1566.

Protocol notes: inhibition of NOD2-driven NF-kB reporter – cell-based, luminescence, uHTS, HEK293 (AID 1566)
Run conditions: HEK293 NOD2/NF-kB luciferase reporter, at 4 µM, active compounds read high
Screen size: about 290,000 compounds; about 1,800 (0.62%) were called active. This excerpt belongs to a sample that is enriched for actives.
Endpoint label: inhibition (%)
Note: unit % is implicit; provide only the numeric part.

Worked examples, 10 molecules total:
CCN(CC)c1ccc(/C=N/NC(=O)C(O)(c2ccccc2)c2ccccc2)o1    3.6
CCOc1ccccc1/C=N/Nc1ccccc1[N+](=O)[O-]    -58
CCN=C1NN=C(c2cc(C)n(Cc3ccco3)c2C)CS1    82.2
CCC(=O)N1CCN(c2nc(C)nc3sc(C)c(C)c23)CC1    8.8
Cc1ccccc1S(=O)(=O)Cc1ccc(C(=O)N2CCN(c3ccccc3F)CC2)o1    10.3
CCCCNC(=S)N/N=C/c1cccc(OCC)c1O    -5.1
CN(C)C1(CNC(=O)C2CCN(S(=O)(=O)c3cc(Cl)ccc3Cl)CC2)CCCCC1    -8.8
COc1ccc(N2CCN(C(=O)c3nc4nc(C)cc(C)n4n3)CC2)cc1    7.4
O=C(CCl)Nc1cccc(Oc2cnccn2)c1    -47.8
CC(C)c1ccc(NC(=O)c2ccccc2NC(=O)C2CC=CCC2C(=O)O)cc1 (stereo not drawn)    -9.6

Memo: Cc1oc(-c2ccc(Cl)cc2)nc1CS(=O)CC(=O)NCCCN1CCN(Cc2ccccc2)CC1 (stereo not drawn) , reported inhibition: 61.5

Memo: O=C(CCCCn1c(=O)c2ccccc2n(CC(=O)Nc2ccccc2)c1=O)NCc1ccco1 , reported inhibition: 3.3

* * *

Protocol notes: inhibition of NOD2-driven NF-kB reporter – cell-based, luminescence, uHTS, HEK293 (AID 1566)
Run conditions: HEK293 NOD2/NF-kB luciferase reporter, at 4 µM, active compounds read high
Hit rate of the full screen: of about 290,000 compounds, about 1,800 (0.62%) were called active. The sample as a whole holds a higher share of actives than the screen did.
Endpoint label: inhibition (%)
Note: unit % is implicit; provide only the numeric part.

CCN(CC)c1ccc2cc(-c3nc4ccccc4[nH]3)c(=O)oc2c1    -69.7
CC(=O)N[C@@H](C)c1nc2ccccc2n1CCCN1CCN(c2nc(-c3ccc(C)cc3)cs2)CC1    44.3
Nc1ccc2c(c1)OC1(CCCC1)O2    69.9
CCC(C(=O)NCCCN1CCCCCC1)n1nc(C)c2sc3ccccc3c2c1=O (stereo unspecified)    -40.3
CN(C)C(=O)c1ccc2c3c(cccc13)CC2    17.8

Memo: CC(=O)Nc1cccc(S(=O)(=O)N2CCCCCC2)c1 , reported inhibition: 2.3

Memo: CCC(=O)c1ccc(O)c(CC=C(C)C)c1 , reported inhibition: 54.6

Memo: O=C(CCCn1c(=S)[nH]c2cc3c(cc2c1=O)OCO3)N1CCN(c2ccc(F)cc2)CC1 , reported inhibition: 27.2

Memo: O=S(=O)(Nc1cccc(S(=O)(=O)N2CCCCCC2)c1)c1ccccc1 , reported inhibition: 16.1

Memo: COCc1cc(Sc2ccc(OC)cc2)nc(-c2ccccc2)n1 , reported inhibition: 18.2

Memo: O=C(CCCCCn1c(=S)[nH]c2ccc(N3CCOCC3)cc2c1=O)NCc1ccccc1 , reported inhibition: 29.5

Memo: Cc1oc(-c2ccccc2Cl)nc1CSc1nc2c(c(=O)[nH]1)CCC2 , reported inhibition: -2

Memo: O=C(CCCn1c(=S)[nH]c2cc3c(cc2c1=O)OCO3)N1CCN(c2ccccc2)CC1 , reported inhibition: 12.2

Memo: COc1ccccc1OCC(=O)NC1CCCCCC1 , reported inhibition: 10.3

Memo: CC(C)(C)OC(=O)C(C)(C)O/N=C(\C(=O)O)c1csc(N)n1 , reported inhibition: 12.5

Memo: O=S(=O)(Nc1nc2ccccc2nc1Nc1ccc2c(c1)OCO2)c1ccccc1 , reported inhibition: 26

Memo: CCN(CC)c1ccc(/C=N/Nc2nc3ccccc3[nH]2)c(O)c1 , reported inhibition: -63.5

Memo: Cc1ccn2cc(C(=O)N3CCCC(Nc4ccc(F)cc4)C3)nc2c1 (stereo unspecified) , reported inhibition: -9.3

Memo: O=S(=O)(c1ccccc1)N1CCC(O)(CSc2ccc(Cl)cc2)CC1 , reported inhibition: 56.9

Memo: CCN(CC)c1ccc2nc3ccccc3[n+](CC)c2c1 , reported inhibition: 74.8

Memo: O=S(=O)(Nc1nc2ccccc2nc1Nc1cccc(S(=O)(=O)N2CCCCC2)c1)c1ccccc1 , reported inhibition: 55.5

Memo: O=C(CSc1nc2ccccc2s1)N/N=C/c1ccccc1C(=O)O , reported inhibition: 56.5

Memo: CC(=O)c1ccc(O)c(CC=C(C)C)c1 , reported inhibition: 34.2

Memo: C/C(CC(=O)NCc1ccc(Cl)cc1)=N\NC(=O)c1ccccc1F , reported inhibition: 4.7

* * *

Protocol notes: inhibition of NOD2-driven NF-kB reporter – cell-based, luminescence, uHTS, HEK293 (AID 1566)
Run conditions: HEK293 NOD2/NF-kB luciferase reporter, at 4 µM
The whole screen tested about 290,000 compounds, of which about 1,800 (0.62%) were called active. No stated cut-off is given here; in the data, active means inhibition above about 50%; inactive means the rest. The sample as a whole holds a higher share of actives than the screen did.
Tick one outcome: YES (active), NO (inactive)

Query: recorded result category for O=C(Nc1ccc(N2CCCCCC2)cc1)c1ccccc1Cl in this test
Reply: NO

* * *

Protocol notes: inhibition of NOD2-driven NF-kB reporter – cell-based, luminescence, uHTS, HEK293 (AID 1566)
Run conditions: HEK293 NOD2/NF-kB luciferase reporter, at 4 µM
The campaign covered roughly 290,000 compounds. About 1,800 (0.62%) were called active. Rule as the data show it: active = inhibition above about 50%; inactive = the rest. The sample as a whole holds a higher share of actives than the screen did.
Tick one outcome: YES = active, NO = inactive

O=C1C=C(c2cccs2)C[C@H](c2ccccc2)[C@H]1n1nnc([N+](=O)[O-])n1    NO
C/C(=N\Nc1ccc(C)c(Cl)c1)c1ccncc1    NO

Query: recorded result category for CCc1ccc(NC(=S)N2CCC(NC(=O)c3ccccc3)CC2)cc1 in this test
Reply: NO

Query: recorded result category for Cc1ccc(NC(=S)N2CCC(NC(=O)c3ccc(C)cc3)CC2)cc1 in this test
Reply: NO

Query: recorded result category for Cc1nc(N2CCN(C(=O)CCC(=O)O)CC2)c2c(C)c(C)sc2n1 in this test
Reply: NO

Query: recorded result category for O=C(c1ccc(Oc2ccc([N+](=O)[O-])cc2Cl)cc1)N1CCCC1 in this test
Reply: NO

Query: recorded result category for O=S(=O)(Nc1cccc(-c2cn3cccnc3n2)c1)c1ccccc1 in this test
Reply: NO

Query: recorded result category for C/C(CC(=O)Nc1ccc(Cl)c(Cl)c1)=N\NC(N)=S in this test
Reply: NO

Query: recorded result category for Cc1nc(SCC(=O)N2CCCCC2)c2c(C)c(C)sc2n1 in this test
Reply: NO

Query: recorded result category for O=C(N/N=C/c1ccccc1O)C1CC(=O)N(c2ccc(F)cc2)C1 (stereo unspecified) in this test
Reply: YES

Query: recorded result category for COc1ccc(C(=O)N2CCC(n3nccc3NC(=O)C3CC3)CC2)c(OC)c1OC in this test
Reply: NO

Query: recorded result category for O=c1cc(O)c2sc(Nc3cccc(C(F)(F)F)c3)nc2[nH]1 in this test
Reply: NO

Query: recorded result category for CCCOc1ccc(/C=N/Nc2ccccc2[N+](=O)[O-])c(O)c1 in this test
Reply: NO

Query: recorded result category for Cc1cc(C2=NNC(=NC3CC3)SC2)c(C)n1Cc1ccco1 in this test
Reply: YES

Query: recorded result category for COc1ccc(-c2cc(=O)oc3cc(OCC(=O)N4C[C@H]5C[C@@H](C4)c4cccc(=O)n4C5)ccc23)cc1 in this test
Reply: NO

Query: recorded result category for COC(=O)c1ccc2nc(NC(=O)C(C)(C)C)sc2c1 in this test
Reply: NO

Query: recorded result category for CCN=C1NN=C(c2cc(C)n(CCc3ccccc3)c2C)CS1 in this test
Reply: NO

* * *

Protocol notes: inhibition of NOD2-driven NF-kB reporter – cell-based, luminescence, uHTS, HEK293 (AID 1566)
Run conditions: HEK293 NOD2/NF-kB luciferase reporter, at 4 µM, active compounds read high
The whole screen tested about 290,000 compounds, of which about 1,800 (0.62%) were called active. The sample as a whole holds a higher share of actives than the screen did.
Listed here: items and their measured inhibition.
Note: unit % is implicit; provide only the numeric part.

O=c1c(Cl)c(N2CCCCC2)cnn1-c1nc2ccccc2[nH]1    -7.2
CC(NC(=O)Nc1ccccn1)N1C(=O)C2C3C=CC(C3)C2C1=O (configuration not stated)    15.9
O=c1[nH]c(C2CCCN(S(=O)(=O)c3ccccc3)C2)nc2c1nnn2Cc1ccc2c(c1)OCCO2 (configuration not stated)    21.7
Cc1ccc(Cn2c(=O)c3ccccc3n3c(SCC(=O)N4CCCCC4C)nnc23)cc1 (configuration not stated)    8.3

Memo: COC(=O)CNc1nc(C2CC2)nc2c1nnn2Cc1ccccc1Cl , reported inhibition: 7.3

Memo: Cc1nn(-c2ccccc2)c(=O)c2ccccc12 , reported inhibition: -1.4

Memo: O=C(O)COc1ccccc1/C=N/NC(=O)CSc1nc2ccccc2s1 , reported inhibition: -0.7
